B1: library; a variant is named by its letters at N, in order (parent)
chain: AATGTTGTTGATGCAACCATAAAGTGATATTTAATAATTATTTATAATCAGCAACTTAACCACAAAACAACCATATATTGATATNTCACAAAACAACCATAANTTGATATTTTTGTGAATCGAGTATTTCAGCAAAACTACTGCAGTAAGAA

Variants of: B1
Assay Remarks: relative integration efficiency (T-LR orientation) vs wild-type transposon end (log2 (normalized fold change)); transposon end mutated: left end; higher = more efficient transposition
Condition Context: with VchCAST RNA-guided transposition machinery (E. coli BL21(DE3) host, lacZ target)
Label 1 when relative integration efficiency (log2) is at or above -1; anything below gets 0.

variant_annotation="CG T32A A33T A34T T35A" assigned_class=1
variant_annotation="CG T38G" assigned_class=1
variant_annotation="CG A22C A23C" assigned_class=0
variant_annotation="CG T114A" assigned_class=1
variant_annotation="CG T56A T57A" assigned_class=1
variant_annotation="TA A16C G24T T32G A33C T76A A77G C87T A96C T112G T113C" assigned_class=1
variant_annotation="CG C97A C98A A99C T100G" assigned_class=0
variant_annotation="CG T28G" assigned_class=1
variant_annotation="CG G10A" assigned_class=1
variant_annotation="CG A93T C94G" assigned_class=0
variant_annotation="CG C60A C61A A62C C63A" assigned_class=1
variant_annotation="CG A109T T110A T111A T112A" assigned_class=0
variant_annotation="CG G115T T116G G117T A118C" assigned_class=1
variant_annotation="CG T42G T43G A44C T45G" assigned_class=1
variant_annotation="CG A73C T74G" assigned_class=0
variant_annotation="CG T30G T31G T32G A33C" assigned_class=0
variant_annotation="TA A23G G24T A33T A70C T76A T86G A102T T111C T113C" assigned_class=1
variant_annotation="CG C87T" assigned_class=1
variant_annotation="CG A81C" assigned_class=1
variant_annotation="CG G106A" assigned_class=0
variant_annotation="TA A16C G24T T30A T76A A77G C87T A102T T111C T113C" assigned_class=0
variant_annotation="CG T56G T57G A58C A59C" assigned_class=0

Where these numbers come from: the supplement of paper PMC10201428
